- System: 817829-284-R-J1-PDC complex spheroids, viability
- Test protocol: Anticancer human tumor 817829-284-R-J1-PDC patient-derived colon adenocarcinoma cell line growth inhibition [GQUAD]; active means viability on the fitted dose curve at most 10% of control; inactive means the rest
- Test conditions: second compound 10 µM; first compound 3.16 µM
Outcome codes: 1 = active, -1 = inactive

COc1cccc2c1C(=O)c1c(O)c3c(c(O)c1C2=O)CC(O)(C(=O)CO)CC3OC1CC(N)C(O)C(C)O1 (stereo not given) + Cc1cnc(CNC(=O)c2c(=O)c3ccc(N4CCCN(C)CC4)nc3n3c2sc2ccccc23)cn1 = 1
O=C(c1cc(Cc2n[nH]c(=O)c3ccccc23)ccc1F)N1CCN(C(=O)C2CC2)CC1 + CN(C)c1ccc(Nc2c3ccc(NC(=O)CCN4CCCC4)cc3nc3cc(NC(=O)CCN4CCCC4)ccc23)cc1 = -1
CC(C)n1c(=O)n(C)c2cnc3cc(F)c(-c4ccc(OCCCN5CCCCC5)nc4)cc3c21 + Cc1cnc(CNC(=O)c2c(=O)c3ccc(N4CCCN(C)CC4)nc3n3c2sc2ccccc23)cn1 = 1
CC(C)(O)C1CCC(Nc2ccc3ncc(-c4cccc(C(F)(F)F)c4)n3n2)CC1 (stereo not given) + Cc1[nH]c2ccc(F)cc2c1-c1nc2c3cccnc3c3ncccc3c2[nH]1 = 1
O=C(c1cc(Cc2n[nH]c(=O)c3ccccc23)ccc1F)N1CCN(C(=O)C2CC2)CC1 + Cc1cnc(CNC(=O)c2c(=O)c3ccc(N4CCCN(C)CC4)nc3n3c2sc2ccccc23)cn1 = 1
Nc1ccn(C2OC(CO)C(O)C2(F)F)c(=O)n1 (stereo not given) + CN(C)c1ccc(Nc2c3ccc(NC(=O)CCN4CCCC4)cc3nc3cc(NC(=O)CCN4CCCC4)ccc23)cc1 = 1
CC(C)(O)C1CCC(Nc2ccc3ncc(-c4cccc(C(F)(F)F)c4)n3n2)CC1 (stereo not given) + CN(C)c1ccc(Nc2c3ccc(NC(=O)CCN4CCCC4)cc3nc3cc(NC(=O)CCN4CCCC4)ccc23)cc1 = 1
COc1cc(C2c3cc4c(cc3C(OC3OC5COC(C)OC5C(O)C3O)C3COC(=O)C23)OCO4)cc(OC)c1O (stereo not given) + CN(C)c1ccc(Nc2c3ccc(NC(=O)CCN4CCCC4)cc3nc3cc(NC(=O)CCN4CCCC4)ccc23)cc1 = -1
C#Cc1c(F)ccc2cc(O)cc(-c3ncc4c(N5CC6CCC(C5)N6)nc(OCC56CCCN5CC(F)C6)nc4c3F)c12 (stereo not given) + Cc1cnc(CNC(=O)c2c(=O)c3ccc(N4CCCN(C)CC4)nc3n3c2sc2ccccc23)cn1 = 1
O=C(NO)c1cnc(N2CCN(S(=O)(=O)c3ccc4ccccc4c3)CC2)nc1 + CN(C)c1ccc(Nc2c3ccc(NC(=O)CCN4CCCC4)cc3nc3cc(NC(=O)CCN4CCCC4)ccc23)cc1 = 1

----------
- System: 817829-284-R-J1-PDC complex spheroids, viability
- Test protocol: Anticancer human tumor 817829-284-R-J1-PDC cell line growth inhibition [GQUAD];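 further: spheroids exposed to agents for 7 days before readout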
- Test conditions: curve of first compound; second compound 1 µM
Result type: IC50

Cc1[nH]c2ccccc2c1CCNCc1ccc(/C=C/C(=O)NO)cc1 + CN(C)c1ccc(Nc2c3ccc(NC(=O)CCN4CCCC4)cc3nc3cc(NC(=O)CCN4CCCC4)ccc23)cc1 = 53.3 nM
C=CC(=O)N1CCN(c2nc(=O)n(-c3c(C)ccnc3C(C)C)c3nc(-c4c(O)cccc4F)c(F)cc23)C(C)C1 (stereo not given) + CN(C)c1ccc(Nc2c3ccc(NC(=O)CCN4CCCC4)cc3nc3cc(NC(=O)CCN4CCCC4)ccc23)cc1 = > 10000 nM
Cc1cccc(N(C)C(=O)C2C(O)CCN2c2nc(C)cc(C(F)(F)F)c2C#N)c1 (stereo not given) + Cc1cnc(CNC(=O)c2c(=O)c3ccc(N4CCCN(C)CC4)nc3n3c2sc2ccccc23)cn1 = < 31.6 nM
O=C(c1cc(Cc2n[nH]c(=O)c3ccccc23)ccc1F)N1CCN(C(=O)C2CC2)CC1 + CN(C)c1ccc(Nc2c3ccc(NC(=O)CCN4CCCC4)cc3nc3cc(NC(=O)CCN4CCCC4)ccc23)cc1 = > 10000 nM
Cn1ncnc1[C@H]1c2n[nH]c(=O)c3cc(F)cc(c23)N[C@@H]1c1ccc(F)cc1 + Cc1[nH]c2ccc(F)cc2c1-c1nc2c3cccnc3c3ncccc3c2[nH]1 = > 316 nM

src = PubChem BioAssay AID2060503
